molecular target: α3β3γ2 GABAA receptor (Homo sapiens, UniProt P18507+P34903); construct: expressed in transfected cells; assay: Binding affinity at recombinant GABAA receptors (Ltk cells stably transfected); settings: recombinant αxβ3γ2; read-out: Ki α3
Sequence (P34903 29-492): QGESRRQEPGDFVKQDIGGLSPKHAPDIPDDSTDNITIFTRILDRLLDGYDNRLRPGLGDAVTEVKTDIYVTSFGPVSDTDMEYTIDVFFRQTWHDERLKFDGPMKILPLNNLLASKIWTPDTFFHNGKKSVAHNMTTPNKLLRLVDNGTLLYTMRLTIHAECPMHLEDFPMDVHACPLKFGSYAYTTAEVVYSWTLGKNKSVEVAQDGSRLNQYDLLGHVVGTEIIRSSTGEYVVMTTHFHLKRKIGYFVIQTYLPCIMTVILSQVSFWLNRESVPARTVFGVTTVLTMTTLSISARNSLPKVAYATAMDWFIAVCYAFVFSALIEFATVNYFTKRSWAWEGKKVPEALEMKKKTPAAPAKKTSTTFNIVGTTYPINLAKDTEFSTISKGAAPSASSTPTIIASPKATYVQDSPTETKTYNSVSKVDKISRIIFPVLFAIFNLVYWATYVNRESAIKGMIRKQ
Sequence (P28472 26-473 partner): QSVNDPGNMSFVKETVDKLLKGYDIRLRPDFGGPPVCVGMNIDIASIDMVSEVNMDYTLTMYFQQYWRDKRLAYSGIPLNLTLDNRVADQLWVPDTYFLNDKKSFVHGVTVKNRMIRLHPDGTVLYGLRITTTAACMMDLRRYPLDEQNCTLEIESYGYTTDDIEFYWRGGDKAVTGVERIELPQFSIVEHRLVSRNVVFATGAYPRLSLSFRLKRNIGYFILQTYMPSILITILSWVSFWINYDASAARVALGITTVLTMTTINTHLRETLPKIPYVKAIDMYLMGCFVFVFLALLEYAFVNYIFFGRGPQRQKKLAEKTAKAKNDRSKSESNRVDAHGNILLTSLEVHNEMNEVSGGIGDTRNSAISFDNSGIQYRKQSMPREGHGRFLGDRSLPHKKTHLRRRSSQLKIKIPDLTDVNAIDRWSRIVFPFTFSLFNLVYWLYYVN
Sequence (P18507 40-475): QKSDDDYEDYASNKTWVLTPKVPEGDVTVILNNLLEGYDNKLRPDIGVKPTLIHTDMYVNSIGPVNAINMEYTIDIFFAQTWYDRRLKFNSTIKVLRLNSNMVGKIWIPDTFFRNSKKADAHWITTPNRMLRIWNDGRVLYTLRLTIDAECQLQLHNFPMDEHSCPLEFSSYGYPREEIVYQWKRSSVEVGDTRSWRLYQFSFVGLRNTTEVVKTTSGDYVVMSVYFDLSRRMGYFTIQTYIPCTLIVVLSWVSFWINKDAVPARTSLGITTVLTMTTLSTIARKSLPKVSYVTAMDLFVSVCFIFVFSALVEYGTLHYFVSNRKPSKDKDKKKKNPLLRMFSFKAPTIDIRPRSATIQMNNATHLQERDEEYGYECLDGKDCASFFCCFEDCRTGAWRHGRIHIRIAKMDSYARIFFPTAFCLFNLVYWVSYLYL
Experimental Readout: pKi
As a rule, pKi stands for the negative log10 of the concentration, concentration in M.

>>> reported_result("CCCOc1cc2c(cn1)[nH]c1ccccc12.Cl [3-PBC, 3-Propoxy-β-carboline hydrochloride]")
7.16

Q. Quick check: pKi of Cc1nnc2ccc(-c3cccc(C(F)(F)F)c3)nn12 [CL218, 872, reference compound] ?
A. 5.94

###

tested on: GABAA α3β3γ2 receptors; assay: Xenopus oocyte expression assay, modulation of GABA current; type: cell-based, rat; conditions: saturating 1-10 μM modulator with EC50 GABA (30 μM); mean±S.D.
Here, each record is paired with measured % of GABA response, α3 data.
The response must be a number in % with no trailing unit.

Answered examples (3):
>>> reported_result("CCOC(=O)c1ncc2[nH]c3cccc(OC(C)C)c3c2c1C")
147
>>> reported_result("CC(C)(C)OC(=O)c1cc2c(cn1)[nH]c1ccccc12 [βCCt, β-carboline-3-carboxylate t-butyl ester]")
108
>>> reported_result("CCCOc1cc2c(cn1)[nH]c1ccccc12.Cl [3-PBC, 3-Propoxy-β-carboline hydrochloride]")
119

Let's switch to this compound now.
Q. Which % of GABA response, α3 is reported for this compound? `CCOC(=O)c1ncn2c1CN(C)C(=O)c1cc(F)ccc1-2`
A. 118

###

biological target: α1β3γ2 GABAA receptor (Homo sapiens, UniProt P14867+P18507); construct: expressed in transfected cells; assay: Binding affinity at recombinant GABAA receptors (Ltk cells stably transfected); conditions: recombinant αxβ3γ2; read-out: Ki α1
Sequence (P14867 28-456, one chain of several): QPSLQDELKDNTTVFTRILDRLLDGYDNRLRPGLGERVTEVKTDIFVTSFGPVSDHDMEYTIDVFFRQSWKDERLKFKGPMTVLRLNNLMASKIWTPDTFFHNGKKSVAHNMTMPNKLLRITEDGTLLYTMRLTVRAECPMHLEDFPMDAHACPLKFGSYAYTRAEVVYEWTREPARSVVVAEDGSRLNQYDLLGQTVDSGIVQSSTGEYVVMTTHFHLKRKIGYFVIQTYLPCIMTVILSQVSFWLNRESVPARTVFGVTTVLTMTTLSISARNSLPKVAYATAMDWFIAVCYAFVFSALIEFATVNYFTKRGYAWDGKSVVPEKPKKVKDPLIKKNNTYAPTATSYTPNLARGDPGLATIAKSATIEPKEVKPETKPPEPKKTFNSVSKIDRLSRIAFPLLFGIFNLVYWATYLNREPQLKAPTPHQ
Experimental Readout: pKi
Hey, just a heads up that pKi is the negative log base 10 of the concentration in molar.

Worked set:
>>> reported_result("Cc1nnc2ccc(-c3cccc(C(F)(F)F)c3)nn12 [CL218, 872, reference compound]")
7.24
>>> reported_result("CCCOc1cc2c(cn1)[nH]c1ccccc12.Cl [3-PBC, 3-Propoxy-β-carboline hydrochloride]")
8.28

The record that follows has no pKi shown yet.
Q. What measured pKi goes with `CCOc1cc2c(cn1)[nH]c1ccccc12` ?
A. 8.19

###

molecular target: α2β3γ2 GABAA receptor (Homo sapiens, UniProt P18507+P47869); construct: expressed in transfected cells; experiment: Binding affinity at recombinant GABAA receptors (Ltk cells stably transfected)
Sequence (P47869 29-451): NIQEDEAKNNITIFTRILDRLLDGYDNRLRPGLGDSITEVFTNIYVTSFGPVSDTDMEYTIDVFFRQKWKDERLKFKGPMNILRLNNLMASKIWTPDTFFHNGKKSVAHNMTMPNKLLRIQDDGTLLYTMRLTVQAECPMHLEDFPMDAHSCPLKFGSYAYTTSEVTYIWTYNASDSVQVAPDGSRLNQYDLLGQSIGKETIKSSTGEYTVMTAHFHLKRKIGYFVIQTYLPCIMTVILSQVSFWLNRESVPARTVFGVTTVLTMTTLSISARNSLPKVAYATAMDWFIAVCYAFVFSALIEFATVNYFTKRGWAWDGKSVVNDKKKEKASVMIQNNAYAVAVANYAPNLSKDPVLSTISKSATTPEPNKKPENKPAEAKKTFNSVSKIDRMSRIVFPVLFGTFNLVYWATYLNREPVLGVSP
Sequence (P28472 26-473 partner): as the sequence (P28472 26-473 partner) above
Sequence (P18507 40-475): as the sequence (P18507 40-475) above
Experimental Readout: pKi
Notebook: values listed as pKi are -log10 of the concentration (mol/L).

Q. Endpoint output: pKi of CC(C)(C)OC(=O)c1cc2c(cn1)[nH]c1ccccc12 [βCCt, β-carboline-3-carboxylate t-butyl ester] . Value?
A. 7.82

###

target: wild type BDZ receptors (cerebral cortical membranes); assay: Radioligand displacement at cerebral cortical membranes; assay type: binding; conditions: read-out: Displacement of [3H] flunitrazepam in vitro, IC50; rat cerebral cortical membranes; mean of three or more experiments
# pIC50 listing for each entry below
Scale: negative log10 of molar concentration, which is what pIC50 denotes.

>>> reported_result("CCCOc1cc2c(cn1)[nH]c1ccccc12.Cl [3-PBC, 3-Propoxy-β-carboline hydrochloride]")
7.96
>>> reported_result("CCOC(=O)c1cc2c(cn1)[nH]c1ccccc12")
8.30
>>> reported_result("COc1cc2c(cn1)[nH]c1ccccc12")
6.91

Moving on to the next molecule.
Q. # input molecule: `CCOc1cc2c(cn1)[nH]c1ccccc12` ; wanted: its pIC50
A. 7.62
